I'd appreciate it if you could supply EC50 values for the items below.
Target: C. elegans Slo-1a (Caenorhabditis elegans)
Sequence (Q95V25 whole entry): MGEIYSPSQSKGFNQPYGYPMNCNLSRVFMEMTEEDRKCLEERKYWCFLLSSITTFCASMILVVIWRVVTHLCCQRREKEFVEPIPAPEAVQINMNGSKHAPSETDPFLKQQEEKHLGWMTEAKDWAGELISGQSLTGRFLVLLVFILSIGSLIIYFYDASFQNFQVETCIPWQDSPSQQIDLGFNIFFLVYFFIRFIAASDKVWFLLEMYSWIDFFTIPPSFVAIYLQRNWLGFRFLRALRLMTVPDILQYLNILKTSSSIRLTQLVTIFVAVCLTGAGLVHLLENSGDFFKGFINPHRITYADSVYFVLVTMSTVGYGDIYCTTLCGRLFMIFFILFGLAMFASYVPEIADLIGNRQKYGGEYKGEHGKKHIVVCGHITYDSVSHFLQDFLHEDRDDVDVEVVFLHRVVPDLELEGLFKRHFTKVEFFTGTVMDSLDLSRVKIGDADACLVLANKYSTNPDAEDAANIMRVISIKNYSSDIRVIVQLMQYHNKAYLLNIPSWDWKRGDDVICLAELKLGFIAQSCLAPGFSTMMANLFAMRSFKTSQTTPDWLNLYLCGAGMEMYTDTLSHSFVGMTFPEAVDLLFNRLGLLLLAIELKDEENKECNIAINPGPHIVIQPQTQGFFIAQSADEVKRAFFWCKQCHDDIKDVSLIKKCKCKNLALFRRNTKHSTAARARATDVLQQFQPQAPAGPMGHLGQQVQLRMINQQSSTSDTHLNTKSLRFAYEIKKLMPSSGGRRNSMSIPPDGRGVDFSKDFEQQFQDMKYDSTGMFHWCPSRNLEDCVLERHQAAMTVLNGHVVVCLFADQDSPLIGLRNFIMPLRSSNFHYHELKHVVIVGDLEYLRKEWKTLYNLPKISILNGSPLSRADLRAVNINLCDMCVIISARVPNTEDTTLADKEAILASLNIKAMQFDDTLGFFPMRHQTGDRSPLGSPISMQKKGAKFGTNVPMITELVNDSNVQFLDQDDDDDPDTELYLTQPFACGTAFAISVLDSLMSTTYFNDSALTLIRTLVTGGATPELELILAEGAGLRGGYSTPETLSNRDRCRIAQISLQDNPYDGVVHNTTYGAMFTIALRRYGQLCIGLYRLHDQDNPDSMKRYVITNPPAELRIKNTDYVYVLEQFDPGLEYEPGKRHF
Assay: In vitro assay 1: C. elegans Slo-1a, action at a recombinant C. elegans CHO cell line (membrane potential measurement)
// units = nM; emit number, no label

compound Cc1nn2c(C3CC3)c(C(=O)N[C@H]3CCc4ccccc43)cnc2c1-c1cccc(OC(F)(F)F)c1 , EC50 observed: 12.6

compound Cc1nn2c(C3CC3)c(C(=O)N[C@H]3CCOc4ccccc43)cnc2c1-c1cccc(C(F)(F)F)c1 , EC50 observed: 6.31

compound COc1cccc(-c2c(C)nn3c(C4CC4)c(C(=O)N[C@H]4CCOc5ccccc54)cnc23)c1 , EC50 observed: 3.98

compound Cc1nn2c(C(C)C)c(C(=O)N[C@H]3CCc4ccccc43)cnc2c1-c1cc(F)cc(Cl)c1 , EC50 observed: 31.6

###

Experiment: log P by HPLC on reversed phase columns (Method L0; [a] acidic, [b] neutral range)
Criterion: chromatographic logP strictly less than 4. Met: y. Not met: n.

// query Is the reported chromatographic logP for Cc1nn2c(C(C)C)c(C(=O)N[C@H]3CCc4ccccc43)cnc2c1-c1cc(F)ccc1F strictly below 4?
// result n

// query Is the reported chromatographic logP for Cc1nn2c(C(C)C)c(C(=O)N[C@H]3CCc4ccccc43)cnc2c1-c1cccc(COC(C)C)c1 strictly below 4?
// result n

// query Is the reported chromatographic logP for Cc1nn2c(C(C)C)c(C(=O)N[C@H]3CCc4ccccc43)cnc2c1-c1ccc(Br)cc1 strictly below 4?
// result n

// query Is the reported chromatographic logP for Cc1nn2c(C(C)C)c(C(=O)NC3CCc4ccccc43)cnc2c1-c1cccc(C(F)(F)F)c1 (stereo not drawn) strictly below 4?
// result n

// query Is the reported chromatographic logP for CC(C)c1c(C(=O)N[C@H]2CCc3ccccc32)cnc2c(-c3cc(Cl)cc(Cl)c3)c(C(F)(F)F)nn12 strictly below 4?
// result n

// query Is the reported chromatographic logP for Cc1nn2c(C(C)C)c(C(=O)N[C@H]3CCCc4ccccc43)cnc2c1-c1ccc(C(C)C)cc1 strictly below 4?
// result n

// query Is the reported chromatographic logP for COCc1cccc(-c2c(C)nn3c(C(C)C)c(C(=O)N[C@H]4CCOc5ccccc54)cnc23)c1 strictly below 4?
// result n

// query Is the reported chromatographic logP for Cc1nn2c(C3CC3)c(C(=O)N[C@H]3CCOc4ccccc43)cnc2c1-c1ccc(F)c(F)c1 strictly below 4?
// result y

// query Is the reported chromatographic logP for Cc1nn2c(C3CC3)c(C(=O)N[C@H]3CCc4ccccc43)cnc2c1-c1c(F)cc(F)cc1F strictly below 4?
// result y

// query Is the reported chromatographic logP for Cc1nn2c(C(C)C)c(C(=O)N[C@H]3CCc4ccccc43)cnc2c1-c1ccc(F)cc1 strictly below 4?
// result n

// query Is the reported chromatographic logP for Cc1nn2c(C(C)C)c(C(=O)N[C@H]3CCc4ccccc43)cnc2c1-c1cccc(N2CCCCC2)c1 strictly below 4?
// result y

// query Is the reported chromatographic logP for Cc1nn2c(C(C)C)c(C(=O)N[C@H]3CCOc4ccccc43)cnc2c1-c1ccc(Cl)cc1Cl strictly below 4?
// result n

// query Is the reported chromatographic logP for CC(C)c1c(C(=O)N[C@H]2CCc3ccccc32)cnc2c(-c3cccc(N(C)C)c3)c(C3CC3)nn12 strictly below 4?
// result n

// query Is the reported chromatographic logP for Cc1nn2c(C3CC3)c(C(=O)N[C@H]3CCc4ccccc43)cnc2c1-c1cc(F)ccc1F strictly below 4?
// result y

// query Is the reported chromatographic logP for COCc1cccc(-c2c(C(F)(F)F)nn3c(C(C)C)c(C(=O)N[C@H]4CCOc5ccccc54)cnc23)c1 strictly below 4?
// result n

// query Is the reported chromatographic logP for CC(C)c1c(C(=O)N[C@H]2CCc3ccccc32)cnc2c(-c3cccc(Cl)c3)c(C(F)(F)F)nn12 strictly below 4?
// result n

// query Is the reported chromatographic logP for CC(C)c1c(C(=O)N[C@H]2CCc3ccccc32)cnc2c(-c3cccc(F)c3)c(C(F)(F)F)nn12 strictly below 4?
// result n

// query Is the reported chromatographic logP for Cc1nn2c(C(C)C)c(C(=O)N[C@H]3CCOc4ccccc43)cnc2c1-c1cc(Cl)ccc1F strictly below 4?
// result n

// query Is the reported chromatographic logP for Cc1nn2c(C(C)C)c(C(=O)N[C@H]3CCc4ccccc43)cnc2c1-c1ccncc1 strictly below 4?
// result y

// query Is the reported chromatographic logP for Cc1nn2c(C(C)C)c(C(=O)N[C@H]3CCCc4ccccc43)cnc2c1-c1cccc(OC(F)(F)F)c1 strictly below 4?
// result n

// query Is the reported chromatographic logP for Cc1nn2c(C(C)C)c(C(=O)N[C@H]3CCOc4ccccc43)cnc2c1-c1ccc2c(c1)NCC2 strictly below 4?
// result y

// query Is the reported chromatographic logP for Cc1nn2c(C(C)C)c(C(=O)N[C@H]3CCCc4ccccc43)cnc2c1-c1ccc(F)c(F)c1 strictly below 4?
// result n

// query Is the reported chromatographic logP for Cc1nn2c(C(C)C)c(C(=O)N[C@H]3CCc4ccccc43)cnc2c1-c1cccc(CN2CCN(C)CC2)c1 strictly below 4?
// result y

// query Is the reported chromatographic logP for Cc1nn2c(C(C)C)c(C(=O)N[C@H]3CCc4ccccc43)cnc2c1-c1cnn(CC2CC2)c1 strictly below 4?
// result y

// query Is the reported chromatographic logP for Cc1nn2c(C)c(C(=O)N[C@H]3CCCc4ccccc43)cnc2c1-c1cccc(Cl)c1 strictly below 4?
// result n

// query Is the reported chromatographic logP for Cc1nn2c(C3CC3)c(C(=O)N[C@H]3CCOc4ccccc43)cnc2c1-c1ccnc(N2CCOCC2)c1F strictly below 4?
// result y

// query Is the reported chromatographic logP for Cc1nn2c(C(C)C)c(C(=O)N[C@H]3CCOc4ccccc43)cnc2c1-c1cccc(Cl)c1Cl strictly below 4?
// result n

// query Is the reported chromatographic logP for COc1cccc(-c2c(C(F)F)nn3c(C(C)C)c(C(=O)N[C@H]4CCc5ccccc54)cnc23)c1 strictly below 4?
// result n

// query Is the reported chromatographic logP for Cc1nn2c(C3CC3)c(C(=O)N[C@H]3CCc4ccccc43)cnc2c1-c1cccc(OC2CC2)c1 strictly below 4?
// result n

###

I'd appreciate it if you could supply chromatographic logP values for the items below.
Test: log P by HPLC on reversed phase columns (Method L0; [a] acidic, [b] neutral range)
Could you respond with only the numeric value?

compound Cc1nn2c(C(C)C)c(C(=O)N[C@H]3CCc4ccccc43)cnc2c1-c1cccc(Cl)c1 , chromatographic logP observed: 5.19

compound Cc1nn2c(C(C)C)c(C(=O)N[C@H]3CCc4ccccc43)cnc2c1-c1cc(Cl)ccc1Cl , chromatographic logP observed: 5.31

compound CC(C)c1c(C(=O)N[C@H]2CCc3ccccc32)cnc2c(-c3cccc(OC(F)(F)F)c3)c(C(F)(F)F)nn12 , chromatographic logP observed: 5.55

compound CC(C)c1c(C(=O)N[C@H]2CCCc3ccccc32)cnc2c(-c3ccccc3Cl)c(Cl)nn12 , chromatographic logP observed: 5.07

compound CC(C)c1c(C(=O)N[C@H]2CCOc3ccccc32)cnc2c(-c3cc(Cl)cc(Cl)c3)c(C(F)(F)F)nn12 , chromatographic logP observed: 5.84

compound COc1ccc(-c2c(C)nn3c(C(C)C)c(C(=O)N[C@H]4CCc5ccccc54)cnc23)cc1 , chromatographic logP observed: 4.43

compound Cc1nn2c(C(C)C)c(C(=O)N[C@H]3CCOc4ccccc43)cnc2c1-c1cncc(Cl)c1 , chromatographic logP observed: 3.91

compound Cc1nn2c(C(C)C)c(C(=O)N[C@H]3CCc4ccccc43)cnc2c1-c1cccc(S(=O)(=O)C2CC2)c1 , chromatographic logP observed: 3.99

compound Cc1nn2c(C3CC3)c(C(=O)N[C@H]3CCc4ccccc43)cnc2c1-c1cccc(F)c1F , chromatographic logP observed: 3.84

compound Cc1nn2c(C(C)C)c(C(=O)N[C@H]3CCc4ccccc43)cnc2c1-c1cccc(N2CCCC2)c1 , chromatographic logP observed: 5.44

compound COCc1cccc(-c2c(C)nn3c(C4CC4)c(C(=O)N[C@H]4CCc5ccccc54)cnc23)c1 , chromatographic logP observed: 3.65

compound Cc1nn2c(C(C)C)c(C(=O)N[C@H]3CCCc4ccccc43)cnc2c1-c1cccc2c1OC(F)(F)O2 , chromatographic logP observed: 5.47

compound CCN(C)c1cccc(-c2c(C)nn3c(C(C)C)c(C(=O)N[C@H]4CCc5ccccc54)cnc23)c1 , chromatographic logP observed: 3.48

compound Cc1nn2c(C(C)C)c(C(=O)N[C@H]3CCCc4ccccc43)cnc2c1-c1c(F)cccc1Cl , chromatographic logP observed: 5.02

compound Cc1nn2c(C3CC3)c(C(=O)N[C@H]3CCc4ccccc43)cnc2c1-c1cccc(OC(F)F)c1 , chromatographic logP observed: 4.01

compound Cc1nn2c(C3CC3)c(C(=O)N[C@H]3CCc4ccccc43)cnc2c1-c1c(F)ccc(F)c1F , chromatographic logP observed: 3.83

compound COCc1cccc(-c2c(C(F)F)nn3c(C(C)C)c(C(=O)N[C@H]4CCc5ccccc54)cnc23)c1 , chromatographic logP observed: 4.36
